Listing: RF, Acetone/Water/Hydrochloric acid (conc.), mobile phase V of selected compounds
assay: Reverse-phase thin-layer chromatographic lipophilicity (RF, RM0); format: physicochemical; conditions: RP-18 silica; V = 60%AC/35%H2O/5%HCl
measured_property: RF, Acetone/Water/Hydrochloric acid (conc.), mobile phase V

| smiles_str | recorded_number |
| --- | --- |
| Clc1ccc2c(NCCCCCCNCC34CC5CC(CC(C5)C3)C4)ccnc2c1 | 0.45 |
| Clc1ccc2c(NCCNCCC34CC5CC(CC(C5)C3)C4)ccnc2c1 | 0.39 |
| Clc1ccc2c(NCCN(CCC34CC5CC(CC(C5)C3)C4)CCC34CC5CC(CC(C5)C3)C4)ccnc2c1 | 0.13 |
| Clc1ccc2c(Nc3ccc(NCC45CC6CC(CC(C6)C4)C5)cc3)ccnc2c1 | 0.44 |

---

experiment: Reverse-phase thin-layer chromatographic lipophilicity (RF, RM0); assay type: physicochemical; conditions: RP-18 silica; III = 70%AC/25%H2O/5%HCl
measured_property: RF, Acetone/Water/Hydrochloric acid (conc.), mobile phase III

| compound | recorded_number |
| --- | --- |
| Clc1ccc2c(NCCCNCC34CC5CC(CC(C5)C3)C4)ccnc2c1 | 0.61 |
| CC(CCNCC12CC3CC(CC(C3)C1)C2)Nc1ccnc2cc(C(F)(F)F)ccc12 (stereo not shown) | 0.56 |
| Clc1ccc2c(N3CCN(CCC45CC6CC(CC(C6)C4)C5)CC3)ccnc2c1 | 0.59 |
| Clc1ccc2c(Nc3cccc4c(NCCC56CC7CC(CC(C7)C5)C6)cccc34)ccnc2c1 | 0.49 |

---

assay: Reverse-phase thin-layer chromatographic lipophilicity (RF, RM0); format: physicochemical; details: RP-18 silica; III = 80%MeOH/15%H2O/5%HCl
measured_property: RF, Methanol/Water/Hydrochloric acid (conc.), mobile phase III

| compound | recorded_number |
| --- | --- |
| Clc1ccc2c(NCCCN3CCN(CCCNCC45CC6CC(CC(C6)C4)C5)CC3)ccnc2c1 [Compound 22] | 0.6 |
| Clc1ccc2c(NCCCNCC34CC5CC(CC(C5)C3)C4)ccnc2c1 [Compound 2] | 0.52 |
| Clc1ccc2c(NCCCCN(CCC34CC5CC(CC(C5)C3)C4)CCC34CC5CC(CC(C5)C3)C4)ccnc2c1 [Compound 10] | 0.1 |
| Clc1ccc2c(NCCCCNCC34CC5CC(CC(C5)C3)C4)ccnc2c1 [Compound 3] | 0.51 |

---

molecular target: recombinant human AChE (Homo sapiens, UniProt P22303); construct: gift of Dr Florian Nachon (Armed Forces Biomedical Research Institute, Brétigny-sur-Orge, France); assay: biochemical; assay type: biochemical; details: IS = Ki(BChE)/Ki(AChE); IS > 1 selective to AChE
Sequence (P22303 32-614): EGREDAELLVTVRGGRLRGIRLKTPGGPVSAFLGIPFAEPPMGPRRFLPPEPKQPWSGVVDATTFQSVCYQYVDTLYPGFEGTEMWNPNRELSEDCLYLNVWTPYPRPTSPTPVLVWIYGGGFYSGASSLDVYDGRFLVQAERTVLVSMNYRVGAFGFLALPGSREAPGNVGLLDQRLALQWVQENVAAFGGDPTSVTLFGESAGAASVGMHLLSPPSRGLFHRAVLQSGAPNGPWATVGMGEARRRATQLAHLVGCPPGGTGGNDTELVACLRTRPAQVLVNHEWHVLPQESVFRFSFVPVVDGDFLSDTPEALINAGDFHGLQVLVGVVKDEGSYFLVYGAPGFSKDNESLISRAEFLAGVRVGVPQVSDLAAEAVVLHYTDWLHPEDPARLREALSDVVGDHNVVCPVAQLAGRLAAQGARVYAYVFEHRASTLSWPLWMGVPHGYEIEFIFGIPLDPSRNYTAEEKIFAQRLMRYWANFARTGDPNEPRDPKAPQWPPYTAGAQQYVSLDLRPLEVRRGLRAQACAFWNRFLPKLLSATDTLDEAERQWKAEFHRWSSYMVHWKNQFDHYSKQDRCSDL
# binarize IS: threshold 1 inclusive, high side Fulfilled, low side Not fulfilled

| molecule | subject_of_test | class_assignment |
| --- | --- | --- |
| Clc1ccc2c(NCCCCCN(CCC34CC5CC(CC(C5)C3)C4)CCC34CC5CC(CC(C5)C3)C4)ccnc2c1 | recombinant human AChE (Homo sapiens, UniProt P22303) | Fulfilled |
| CC(CCNCC12CC3CC(CC(C3)C1)C2)Nc1ccnc2ccccc12 (centres unmarked) | recombinant human AChE (Homo sapiens, UniProt P22303) | Not fulfilled |
| Clc1ccc2c(N3CCN(CCC45CC6CC(CC(C6)C4)C5)CC3)ccnc2c1 | recombinant human AChE (Homo sapiens, UniProt P22303) | Fulfilled |
| Clc1ccc2c(NCCN(CCC34CC5CC(CC(C5)C3)C4)CCC34CC5CC(CC(C5)C3)C4)ccnc2c1 | recombinant human AChE (Homo sapiens, UniProt P22303) | Not fulfilled |
| Clc1ccc2c(Nc3ccc(NCC45CC6CC(CC(C6)C4)C5)cc3)ccnc2c1 | recombinant human AChE (Homo sapiens, UniProt P22303) | Not fulfilled |
| Clc1ccc2c(NCCCNCC34CC5CC(CC(C5)C3)C4)ccnc2c1 | recombinant human AChE (Homo sapiens, UniProt P22303) | Fulfilled |
| Clc1ccc2c(NCCCCCCNCC34CC5CC(CC(C5)C3)C4)ccnc2c1 | recombinant human AChE (Homo sapiens, UniProt P22303) | Fulfilled |
| Clc1ccc2c(NCCCCCCCCNCC34CC5CC(CC(C5)C3)C4)ccnc2c1 | recombinant human AChE (Homo sapiens, UniProt P22303) | Fulfilled |

---

RF, Acetone/Water/Hydrochloric acid (conc.), mobile phase III values, listed per item
assay: Reverse-phase thin-layer chromatographic lipophilicity (RF, RM0); assay type: physicochemical; conditions: RP-18 silica; III = 70%AC/25%H2O/5%HCl
measured_property: RF, Acetone/Water/Hydrochloric acid (conc.), mobile phase III

| compound | result |
| --- | --- |
| FC(F)(F)c1ccc2c(NCCCNCC34CC5CC(CC(C5)C3)C4)ccnc2c1 [Compound 7] | 0.57 |
| CC(CCNCC12CC3CC(CC(C3)C1)C2)Nc1ccnc2ccccc12 (stereo not shown) [Compound 15] | 0.6 |
| Clc1ccc2c(NCCCCCCCCNCC34CC5CC(CC(C5)C3)C4)ccnc2c1 [Compound 5] | 0.55 |
| Clc1ccc2c(NCCCCNCC34CC5CC(CC(C5)C3)C4)ccnc2c1 [Compound 3] | 0.63 |
| Clc1ccc2c(NCCCCCN(CCC34CC5CC(CC(C5)C3)C4)CCC34CC5CC(CC(C5)C3)C4)ccnc2c1 [Compound 11] | 0.32 |
| Clc1ccc2c(N3CCN(CC45CC6CC(CC(C6)C4)C5)CC3)ccnc2c1 [Compound 20] | 0.69 |
| FC(F)(F)c1ccc2c(NCCNCC34CC5CC(CC(C5)C3)C4)ccnc2c1 [Compound 6] | 0.57 |
| Clc1ccc2c(NCCNCC34CC5CC(CC(C5)C3)C4)ccnc2c1 [Compound 1] | 0.62 |
| CC(CCNCC12CC3CC(CC(C3)C1)C2)Nc1ccnc2cc(Cl)ccc12 (stereo not shown) [Compound 12] | 0.62 |
| CC(CCNCCC12CC3CC(CC(C3)C1)C2)Nc1ccnc2cc(Cl)ccc12 (stereo not shown) [Compound 14] | 0.53 |
| Clc1ccc2c(NCCNCCC34CC5CC(CC(C5)C3)C4)ccnc2c1 [Compound 8] | 0.55 |
| Clc1ccc2c(NCCCN3CCN(CCCNCCC45CC6CC(CC(C6)C4)C5)CC3)ccnc2c1 [Compound 23] | 0.62 |
| Clc1ccc2c(NCCN(CCC34CC5CC(CC(C5)C3)C4)CCC34CC5CC(CC(C5)C3)C4)ccnc2c1 [Compound 9] | 0.33 |
| Clc1ccc2c(Nc3cccc(NCC45CC6CC(CC(C6)C4)C5)c3)ccnc2c1 [Compound 18] | 0.55 |
| Clc1ccc2c(NCCCN3CCN(CCCNCC45CC6CC(CC(C6)C4)C5)CC3)ccnc2c1 [Compound 22] | 0.71 |
| Clc1ccc2c(NCCCCN(CCC34CC5CC(CC(C5)C3)C4)CCC34CC5CC(CC(C5)C3)C4)ccnc2c1 [Compound 10] | 0.33 |
| Clc1ccc2c(Nc3ccc(NCC45CC6CC(CC(C6)C4)C5)cc3)ccnc2c1 [Compound 17] | 0.59 |
| CC(CCNCCC12CC3CC(CC(C3)C1)C2)Nc1ccnc2ccccc12 (stereo not shown) [Compound 16] | 0.59 |
| Clc1ccc2c(NCCCCCCNCC34CC5CC(CC(C5)C3)C4)ccnc2c1 [Compound 4] | 0.6 |

---

assay: Reverse-phase thin-layer chromatographic lipophilicity (RF, RM0); assay type: physicochemical; settings: RP-18 silica; IX = 50%MeOH/45%H2O/5%HCl
measured_property: RF, Methanol/Water/Hydrochloric acid (conc.), mobile phase IX

| smiles_str | recorded_number |
| --- | --- |
| FC(F)(F)c1ccc2c(NCCNCC34CC5CC(CC(C5)C3)C4)ccnc2c1 | 0.11 |
| Clc1ccc2c(NCCCN3CCN(CCCNCCC45CC6CC(CC(C6)C4)C5)CC3)ccnc2c1 | 0.12 |
| Clc1ccc2c(NCCNCCC34CC5CC(CC(C5)C3)C4)ccnc2c1 | 0.08 |
| Clc1ccc2c(Nc3cccc(NCC45CC6CC(CC(C6)C4)C5)c3)ccnc2c1 | 0.09 |

---

# RF, Dioxane/Water/Hydrochloric acid (conc.), mobile phase VI per entry
assay: Reverse-phase thin-layer chromatographic lipophilicity (RF, RM0); assay type: physicochemical; conditions: RP-18 silica; VI = 40%Dioxane/55%H2O/5%HCl
measured_property: RF, Dioxane/Water/Hydrochloric acid (conc.), mobile phase VI

| compound | recorded_number |
| --- | --- |
| Clc1ccc2c(NCCNCC34CC5CC(CC(C5)C3)C4)ccnc2c1 | 0.4 |
| FC(F)(F)c1ccc2c(NCCCNCC34CC5CC(CC(C5)C3)C4)ccnc2c1 | 0.33 |
| Clc1ccc2c(NCCCCNCC34CC5CC(CC(C5)C3)C4)ccnc2c1 | 0.41 |
| CC(CCNCC12CC3CC(CC(C3)C1)C2)Nc1ccnc2cc(Cl)ccc12 (centres unmarked) | 0.4 |
| CC(CCNCCC12CC3CC(CC(C3)C1)C2)Nc1ccnc2ccccc12 (centres unmarked) | 0.35 |
| FC(F)(F)c1ccc2c(NCCNCC34CC5CC(CC(C5)C3)C4)ccnc2c1 | 0.33 |
| Clc1ccc2c(NCCCN3CCN(CCCNCC45CC6CC(CC(C6)C4)C5)CC3)ccnc2c1 | 0.48 |
| Clc1ccc2c(NCCCCCCNCC34CC5CC(CC(C5)C3)C4)ccnc2c1 | 0.38 |
| Clc1ccc2c(NCCCCCCCCNCC34CC5CC(CC(C5)C3)C4)ccnc2c1 | 0.31 |
| CC(CCNCC12CC3CC(CC(C3)C1)C2)Nc1ccnc2ccccc12 (centres unmarked) | 0.35 |
| Clc1ccc2c(NCCNCCC34CC5CC(CC(C5)C3)C4)ccnc2c1 | 0.28 |
| CC(CCNCCC12CC3CC(CC(C3)C1)C2)Nc1ccnc2cc(Cl)ccc12 (centres unmarked) | 0.27 |
| Clc1ccc2c(NCCCCN(CCC34CC5CC(CC(C5)C3)C4)CCC34CC5CC(CC(C5)C3)C4)ccnc2c1 | 0 |
| Clc1ccc2c(N3CCN(CC45CC6CC(CC(C6)C4)C5)CC3)ccnc2c1 | 0.5 |
| Clc1ccc2c(NCCCN3CCN(CCCNCCC45CC6CC(CC(C6)C4)C5)CC3)ccnc2c1 | 0.38 |
| Clc1ccc2c(N3CCN(CCC45CC6CC(CC(C6)C4)C5)CC3)ccnc2c1 | 0.39 |
| Clc1ccc2c(NCCCCCN(CCC34CC5CC(CC(C5)C3)C4)CCC34CC5CC(CC(C5)C3)C4)ccnc2c1 | 0 |
